- system: T1, GDF-11 (UniProt O95390 299-407)
- T1 construct: also called growth and differentiation factor 11
- T1 sequence (looked up): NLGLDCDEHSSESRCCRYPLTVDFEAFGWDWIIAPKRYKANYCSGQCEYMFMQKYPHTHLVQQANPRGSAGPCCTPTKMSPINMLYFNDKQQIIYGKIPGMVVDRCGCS
- procedure details: SPR (Biacore 8K), Fc protein captured on anti-human IgG, ligand injected
measurement type: Kd

>>> result("ActRIIA-B3 (SEQ ID NO: 97) chimera-Fc protein (Fc fusion, Tested as chimera-Fc protein; not shown: linker (if any) and Fc domain) GAILGRSETQECLFFNANWEKDRTNQTGVEPCYGDKDKRLHCYASWRNSSGSIEIVKQGCWLDDINCYDRTDCVEKKDSPEVYFCCCEGNMCNEKFSYFPEMEVTQPTS")
"< 1 pM"
>>> result("ActRIIA-A5 (SEQ ID NO: 107) chimera-Fc protein (Fc fusion, Tested as chimera-Fc protein; not shown: linker (if any) and Fc domain) GAILGRSETQECLFFNANWEKDRTNQTGVEPCYGDKDKRRHCFATWKNISGSIEIVKQGCWLDDFNCYDRQECVEKKDSPEVYFCCCEGNMCNEKFSYFPEMEVTQPTS")
"6.65 pM"
>>> result("ActRIIB-B7 (SEQ ID NO: 115) chimera-Fc protein (Fc fusion, Tested as chimera-Fc protein; not shown: linker (if any) and Fc domain) GRGEAETRECIYYNANWELERTNQSGLERCEGEQDKRLHCYASWRNSSGTIELVKKGCWLDDFNCYDRQECVATEENPQVYFCCCEGNFCNEKFSYFPEAGGPEVTYEPPPTAPT")
"< 1 pM"
>>> result("ActRIIB-A3 (SEQ ID NO: 122) chimera-Fc protein (Fc fusion, Tested as chimera-Fc protein; not shown: linker (if any) and Fc domain) GRGEAETRECIYYNANWELERTNQSGLERCYGDKDKRLHCYASWRNSSGTIELVKKGCWLDDFNCYDRQECVATEENPQVYFCCCEGNFCNERFTHLPEAGGPEVTYEPPPTAPT")
"< 1 pM"
